Origin of values: patent US12091425B2

target system: Mcl-1/Bim interaction, recombinant human Mcl-1 (171-327) (Homo sapiens, UniProt Q07820)
Construct: made in house
Sequence (Q07820 171-327): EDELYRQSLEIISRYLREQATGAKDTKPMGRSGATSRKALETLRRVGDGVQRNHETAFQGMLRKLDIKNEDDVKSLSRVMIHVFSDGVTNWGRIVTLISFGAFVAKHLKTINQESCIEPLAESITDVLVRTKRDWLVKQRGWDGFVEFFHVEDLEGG
protocol notes: Cell free Mcl-1: Bim Affinity Assay (Mcl-1 HTRF)
Format: binding
condition parameters: TR-FRET, 0.1 nM Mcl-1 (171-327), 0.05 nM biotin-Bim (51-76)
pIC50: −log10 of the molar value.
Entry flag: class 1 if pIC50 reaches 9; class 0 if it does not.

C[C@@H]1[C@@H](C)/C=C/[C@H](O)[C@@H]2CC[C@H]2CN2C[C@@]3(CCCc4cc(Cl)ccc43)COc3ccc(cc32)C(=O)NS1(=O)=O (single isomer, unassigned)	class 1
O=C1NS(=O)(=O)[C@@H]2CCC[C@H]2C/C=C/[C@H](O)[C@@H]2CC[C@H]2CN2C[C@@]3(CCCc4cc(Cl)ccc43)COc3ccc1cc32 (single isomer, unassigned) [Example 326]	class 0
O=C1NS(=O)(=O)CCCCCC[C@@H](O)[C@@H]2CC[C@H]2CN2C[C@@]3(CCCc4cc(Cl)ccc43)COc3ccc1cc32	class 0

Incoming: Is pIC50 at least 9? Consider CC[C@@H]1CC/C=C/[C@H](OCc2ncccn2)[C@@H]2CC[C@H]2CN2C[C@@]3(CCCc4cc(Cl)ccc43)COc3ccc(cc32)C(=O)NS1(=O)=O
Outgoing: class 1

Incoming: Same thing, different compound: CC[C@@H]1CC/C=C/[C@H](OCc2ncco2)[C@@H]2CC[C@H]2CN2C[C@@]3(CCCc4cc(Cl)ccc43)COc3ccc(cc32)C(=O)NS1(=O)=O
Outgoing: class 1

Incoming: Same thing, different compound: C[C@H]1C/C=C/[C@H](O)[C@@H]2CC[C@H]2CN2C[C@@]3(CCCc4cc(Cl)ccc43)COc3ccc(cc32)C(=O)NS(=O)(=O)N1
Outgoing: class 1

Incoming: Same thing, different compound: C[C@H]1C/C=C/[C@H](O)[C@@H]2CC[C@H]2CN2C[C@@]3(CCCc4cc(Cl)ccc43)COc3ccc(cc32)C(=O)NS(=O)(=O)N1C[C@@H]1CCCO1 (single isomer, unassigned)
Outgoing: class 1

Incoming: Same thing, different compound: COCCO[C@H]1/C=C/C[C@H]2COC[C@@H]2S(=O)(=O)NC(=O)c2ccc3c(c2)N(C[C@@H]2CC[C@H]21)C[C@@]1(CCCc2cc(Cl)ccc21)CO3 (single isomer, unassigned)
Outgoing: class 0

Incoming: Same thing, different compound: COCCN1CC/C=C/[C@H](O)[C@@H]2CC[C@H]2CN2C[C@@]3(CCCc4cc(Cl)ccc43)COc3ccc(cc32)C(=O)NS1(=O)=O
Outgoing: class 1

Incoming: Same thing, different compound: CC[C@@H]1CC/C=C/[C@H](OCC#N)[C@@H]2CC[C@H]2CN2C[C@@]3(CCCc4cc(Cl)ccc43)COc3ccc(cc32)C(=O)NS1(=O)=O
Outgoing: class 0

----------
Measured IC50, listed per entry.
target system: Mcl-1/Bim interaction, recombinant human Mcl-1 (171-327) (Homo sapiens, UniProt Q07820)
Construct: made in house
protocol notes: Cell free Mcl-1: Bim Affinity Assay (Mcl-1 HTRF)
Assay type: binding
condition parameters: cell free Mcl-1:Bim TR-FRET, recombinant human Mcl-1 (171-327)
Procedure: Cell free Mcl-1: Bim Affinity Assay (Mcl-1 HTRF) The inhibition of the Mcl-1/Bim interaction was measured using a time-resolved fluorescence resonance energy transfer (TR-FRET) assay. […] A biotinylated peptide derived from human Bim (residues 51-76) was purchased from CPC Scientific (San Jose, CA). […] The reaction plates were further incubated overnight and then were read on an Envision® multimode reader (PerkinElmer). […]
Answer in nM, number only, no unit symbol.

C[C@@H]1[C@@H](C)C/C=C/[C@H](OCCN2CCN(S(C)(=O)=O)CC2)[C@@H]2CC[C@H]2CN2C[C@@]3(CCCc4cc(Cl)ccc43)COc3ccc(cc32)C(=O)NS1(=O)=O	1.12
O=C1CC[C@@H]2CC[C@H]2CN2C[C@@]3(CCCc4cc(Cl)ccc43)COc3ccc(cc32)C(=O)NS(=O)(=O)CCN1	12
C[C@@H]1[C@@H](C)C/C=C/C[C@H](O)[C@@H]2CC[C@H]2CN2C[C@@]3(CCCc4cc(Cl)ccc43)COc3ccc(cc32)C(=O)NS1(=O)=O (single isomer, unassigned)	4.77
CO[C@H]1C/C=C/[C@H](OCCN2CCOCC2)[C@@H]2CC[C@H]2CN2C[C@@]3(CCCc4cc(Cl)ccc43)COc3ccc(cc32)C(=O)NS(=O)(=O)[C@@H]1C[C@@H]1CCCO1 (single isomer, unassigned)	0.589
CC[C@@H]1CC/C=C/C[C@H](O)[C@@H]2CC[C@H]2CN2C[C@@]3(CCCc4cc(Cl)ccc43)COc3ccc(cc32)C(=O)NS1(=O)=O	4
CO[C@@H]1/C=C/[C@H](O)[C@@H]2CC[C@H]2CN2C[C@@]3(CCCc4cc(Cl)ccc43)COc3ccc(cc32)C(=O)NS(=O)(=O)[C@H](C)C1 (single isomer, unassigned)	0.666

Incoming: Missing value: IC50, Mcl-1/Bim interaction, recombinant human Mcl-1 (171-327) (Homo sapiens, UniProt Q07820), entry CC(C)OC(=O)C[C@@H]1[C@@H](C)C/C=C\[C@H](O)[C@@H]2CC[C@H]2CN2C[C@@]3(CCCc4cc(Cl)ccc43)COc3ccc(cc32)C(=O)NS1(=O)=O [Example 568] . Fill in?
Outgoing: 1.1

Incoming: Same thing, different molecule: O=C1NS(=O)(=O)C[C@@H]2C[C@@H]2CC[C@H](O)[C@@H]2CC[C@H]2CN2C[C@@]3(CCCc4cc(Cl)ccc43)COc3ccc1cc32.O=C1NS(=O)(=O)C[C@H]2C[C@H]2CC[C@H](O)[C@@H]2CC[C@H]2CN2C[C@@]3(CCCc4cc(Cl)ccc43)COc3ccc1cc32 (mixture of isomers)
Outgoing: 21.4

Incoming: Same thing, different molecule: C=C1CCCC[C@@H](CC)S(=O)(=O)NC(=O)c2ccc3c(c2)N(C[C@@H]2CC[C@@H]12)C[C@@]1(CCCc2cc(Cl)ccc21)CO3
Outgoing: 15.8

Incoming: Same thing, different molecule: COC1CN(CCO[C@H]2/C=C/C[C@H](C)[C@@H](C)S(=O)(=O)NC(=O)c3ccc4c(c3)N(C[C@@H]3CC[C@H]32)C[C@@]2(CCCc3cc(Cl)ccc32)CO4)C1
Outgoing: 0.416
